Molecular target: T1, Human CD137 ECD (human)
T1 construct: also called 4-1BB
T1 sequence (chain, as listed by the source limits assumed): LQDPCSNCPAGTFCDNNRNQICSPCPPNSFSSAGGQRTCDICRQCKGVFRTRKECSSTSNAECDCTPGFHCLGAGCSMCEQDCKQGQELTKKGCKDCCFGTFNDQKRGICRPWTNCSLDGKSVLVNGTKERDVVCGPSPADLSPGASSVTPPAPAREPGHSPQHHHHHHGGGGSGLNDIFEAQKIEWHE
Test: single mutant vs template dBBDu183H
READOUT: fold change of affinity (fold)
One number for each entry, in fold.

binder="H183/L072 VH Y58F (antibody, name in Kabat numbering, V domains shown) VH: QVQLVESGGGLVQPGRSLRLSCAASGFTFSNAWMHWVRQAPGKGLEWVAQIKDKGNAYAAFYAPSVKGRFTISRDDSKNSIYLQMNSLKTEDTAVYYCHYVHYASASTVLPAFGVDAWGQGTTVTVSS VL: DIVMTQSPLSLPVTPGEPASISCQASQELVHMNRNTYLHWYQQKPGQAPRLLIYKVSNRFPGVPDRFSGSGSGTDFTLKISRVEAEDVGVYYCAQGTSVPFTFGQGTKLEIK" experimental_value=0.9
binder="H183/L072 VH H96I (antibody, name in Kabat numbering, V domains shown) VH: QVQLVESGGGLVQPGRSLRLSCAASGFTFSNAWMHWVRQAPGKGLEWVAQIKDKGNAYAAYYAPSVKGRFTISRDDSKNSIYLQMNSLKTEDTAVYYCHYVIYASASTVLPAFGVDAWGQGTTVTVSS VL: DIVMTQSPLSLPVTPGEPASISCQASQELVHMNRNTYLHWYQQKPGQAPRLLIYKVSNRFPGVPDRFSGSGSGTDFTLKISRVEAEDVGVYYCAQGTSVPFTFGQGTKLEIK" experimental_value=0.5
binder="H183/L072 VH H35Y (antibody, name in Kabat numbering, V domains shown) VH: QVQLVESGGGLVQPGRSLRLSCAASGFTFSNAWMYWVRQAPGKGLEWVAQIKDKGNAYAAYYAPSVKGRFTISRDDSKNSIYLQMNSLKTEDTAVYYCHYVHYASASTVLPAFGVDAWGQGTTVTVSS VL: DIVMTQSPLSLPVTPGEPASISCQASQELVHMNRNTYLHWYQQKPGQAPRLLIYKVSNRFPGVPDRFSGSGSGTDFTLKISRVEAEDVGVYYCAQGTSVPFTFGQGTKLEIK" experimental_value=3.9
binder="H183/L072 VH G26N (antibody, name in Kabat numbering, V domains shown) VH: QVQLVESGGGLVQPGRSLRLSCAASNFTFSNAWMHWVRQAPGKGLEWVAQIKDKGNAYAAYYAPSVKGRFTISRDDSKNSIYLQMNSLKTEDTAVYYCHYVHYASASTVLPAFGVDAWGQGTTVTVSS VL: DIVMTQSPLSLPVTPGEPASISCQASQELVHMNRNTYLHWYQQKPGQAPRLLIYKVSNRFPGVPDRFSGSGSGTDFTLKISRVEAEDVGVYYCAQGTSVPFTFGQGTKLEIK" experimental_value=0.5
binder="H183/L072 VH A56S (antibody, name in Kabat numbering, V domains shown) VH: QVQLVESGGGLVQPGRSLRLSCAASGFTFSNAWMHWVRQAPGKGLEWVAQIKDKGNAYSAYYAPSVKGRFTISRDDSKNSIYLQMNSLKTEDTAVYYCHYVHYASASTVLPAFGVDAWGQGTTVTVSS VL: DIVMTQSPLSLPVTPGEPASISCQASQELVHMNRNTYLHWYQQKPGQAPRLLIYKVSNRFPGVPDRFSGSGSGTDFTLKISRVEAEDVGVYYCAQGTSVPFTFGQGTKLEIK" experimental_value=0.7

Value sought for every listed binder: fold change of affinity.
1. H183/L072 VH K52bI (antibody, name in Kabat numbering, V domains shown) VH: QVQLVESGGGLVQPGRSLRLSCAASGFTFSNAWMHWVRQAPGKGLEWVAQIKDIGNAYAAYYAPSVKGRFTISRDDSKNSIYLQMNSLKTEDTAVYYCHYVHYASASTVLPAFGVDAWGQGTTVTVSS VL: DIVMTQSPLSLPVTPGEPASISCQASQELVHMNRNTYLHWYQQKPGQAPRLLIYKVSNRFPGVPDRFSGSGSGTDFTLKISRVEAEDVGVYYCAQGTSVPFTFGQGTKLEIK
2. H183/L072 VH Y59M (antibody, name in Kabat numbering, V domains shown) VH: QVQLVESGGGLVQPGRSLRLSCAASGFTFSNAWMHWVRQAPGKGLEWVAQIKDKGNAYAAYMAPSVKGRFTISRDDSKNSIYLQMNSLKTEDTAVYYCHYVHYASASTVLPAFGVDAWGQGTTVTVSS VL: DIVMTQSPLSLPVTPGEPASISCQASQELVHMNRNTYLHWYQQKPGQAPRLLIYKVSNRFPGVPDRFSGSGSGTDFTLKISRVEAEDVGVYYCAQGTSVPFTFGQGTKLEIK
3. H183/L072 VH A32K (antibody, name in Kabat numbering, V domains shown) VH: QVQLVESGGGLVQPGRSLRLSCAASGFTFSNKWMHWVRQAPGKGLEWVAQIKDKGNAYAAYYAPSVKGRFTISRDDSKNSIYLQMNSLKTEDTAVYYCHYVHYASASTVLPAFGVDAWGQGTTVTVSS VL: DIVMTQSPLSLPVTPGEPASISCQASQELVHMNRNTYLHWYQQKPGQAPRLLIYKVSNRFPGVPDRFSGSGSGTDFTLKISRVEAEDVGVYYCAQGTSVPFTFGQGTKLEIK

OUTPUT:
0.8
1.1
1

// input: 2 binders below; output: fold change of affinity for each
1. H183/L072 VH A60E (antibody, name in Kabat numbering, V domains shown) VH: QVQLVESGGGLVQPGRSLRLSCAASGFTFSNAWMHWVRQAPGKGLEWVAQIKDKGNAYAAYYEPSVKGRFTISRDDSKNSIYLQMNSLKTEDTAVYYCHYVHYASASTVLPAFGVDAWGQGTTVTVSS VL: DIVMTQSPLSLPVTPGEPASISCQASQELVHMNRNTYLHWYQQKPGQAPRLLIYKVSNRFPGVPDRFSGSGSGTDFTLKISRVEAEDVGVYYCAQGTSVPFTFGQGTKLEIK
2. H183/L072 VH I51L (antibody, name in Kabat numbering, V domains shown) VH: QVQLVESGGGLVQPGRSLRLSCAASGFTFSNAWMHWVRQAPGKGLEWVAQLKDKGNAYAAYYAPSVKGRFTISRDDSKNSIYLQMNSLKTEDTAVYYCHYVHYASASTVLPAFGVDAWGQGTTVTVSS VL: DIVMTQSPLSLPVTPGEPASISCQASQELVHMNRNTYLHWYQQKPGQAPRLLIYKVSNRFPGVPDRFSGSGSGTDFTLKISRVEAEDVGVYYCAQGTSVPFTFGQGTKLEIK

OUTPUT:
1. 0.8
2. 0.1
